Molecular target: mouse TMEM16A mutant I512A (Mus musculus, UniProt Q8BHY3, I512A)
Construct: expressed in transfected cells; host or cells: HEK293T
Sequence (Q8BHY3 1-960 I512A): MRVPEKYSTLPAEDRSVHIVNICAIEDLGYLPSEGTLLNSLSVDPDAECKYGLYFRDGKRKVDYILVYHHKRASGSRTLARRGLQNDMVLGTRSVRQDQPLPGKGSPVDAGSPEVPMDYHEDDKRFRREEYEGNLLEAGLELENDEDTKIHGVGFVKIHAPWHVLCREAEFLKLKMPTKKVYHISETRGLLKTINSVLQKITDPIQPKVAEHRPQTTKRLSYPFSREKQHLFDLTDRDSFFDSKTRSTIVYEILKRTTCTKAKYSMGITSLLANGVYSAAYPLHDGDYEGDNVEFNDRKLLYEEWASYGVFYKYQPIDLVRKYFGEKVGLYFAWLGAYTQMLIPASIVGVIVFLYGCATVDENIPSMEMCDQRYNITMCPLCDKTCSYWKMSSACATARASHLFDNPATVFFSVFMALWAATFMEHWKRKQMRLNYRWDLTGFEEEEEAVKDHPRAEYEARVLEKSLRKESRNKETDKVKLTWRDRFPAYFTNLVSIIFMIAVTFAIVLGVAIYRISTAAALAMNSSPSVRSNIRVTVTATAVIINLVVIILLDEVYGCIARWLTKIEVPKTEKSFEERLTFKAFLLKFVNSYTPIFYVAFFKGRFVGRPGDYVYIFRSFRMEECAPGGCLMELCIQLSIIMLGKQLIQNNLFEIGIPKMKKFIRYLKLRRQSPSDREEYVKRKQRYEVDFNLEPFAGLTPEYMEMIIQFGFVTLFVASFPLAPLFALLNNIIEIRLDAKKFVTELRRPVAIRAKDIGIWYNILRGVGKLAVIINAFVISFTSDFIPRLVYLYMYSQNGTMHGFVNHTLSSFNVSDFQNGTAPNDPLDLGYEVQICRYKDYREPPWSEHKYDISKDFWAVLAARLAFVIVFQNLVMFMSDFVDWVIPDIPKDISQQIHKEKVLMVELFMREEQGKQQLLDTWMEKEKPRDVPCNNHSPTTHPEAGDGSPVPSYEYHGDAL
Test: Inside-out patch recording of 1PBC block, mutant I512A
Format: cell-based
Conditions: I512A; V 60 mV
PROPERTY_LABEL: pIC50
Scale: negative log10 of molar concentration, which is what pIC50 denotes.

# input compound: N#Cc1c(C(F)(F)F)cc(O)n2c1nc1ccccc12 [1PBC] ; wanted: its pIC50
4.72

* * *

Molecular target: mouse TMEM16A mutant K603Q (Mus musculus, UniProt Q8BHY3, K603Q)
Construct: expressed in transfected cells; host or cells: HEK293T
Experiment: Inside-out patch recording of 1PBC block, mutant K603Q
Assay type: cell-based
Conditions: 140 mV; 4 µM Ca2+
PROPERTY_LABEL: IC50 (µM)
Note: unit µM is implicit; provide only the numeric part.

Which value of IC50 has been reported for N#Cc1c(C(F)(F)F)cc(O)n2c1nc1ccccc12 in the records?
196

* * *

Target: mouse TMEM16A mutant I640A (Mus musculus, UniProt Q8BHY3, I640A)
Construct: expressed in transfected cells; host or cells: HEK293T
Assay: Inside-out patch recording of 1PBC block, mutant I640A
Format: cell-based
Settings: 40 mV; 15 µM Ca2+
PROPERTY_LABEL: IC50 (µM)
All answers are understood in µM, so give the number only.

What value of IC50 has been reported for the following molecule? N#Cc1c(C(F)(F)F)cc(O)n2c1nc1ccccc12
24.7
